# Test system: SF-539
# Test: NCI tumour cell line growth inhibition, 48 h
The source made the active and inactive calls. Cut-off read from the data, not from the text of the source: active = GI50 up to about 1.1 µM and inactive = higher.
Outcome codes: active, inactive

>>> qualitative_label("CC(C)=CCc1c(O)c(CC=C(C)C)c2oc(-c3ccc(O)cc3O)c(CC=C(C)C)c(=O)c2c1O")
"inactive"
>>> qualitative_label("NC(=O)c1oc([N+](=O)[O-])c(-c2ccccc2)c1-c1ccccc1")
"inactive"
>>> qualitative_label("CC(=O)C(=[N+]=[N-])C(=O)OCCOC(=O)C(=[N+]=[N-])C(C)=O")
"active"
>>> qualitative_label("N#Cc1c(N)c(-c2ccc(Cl)cc2)c(F)c2ccccc12")
"inactive"
>>> qualitative_label("CC(=O)C1(/N=N/c2ccc(S(N)(=O)=O)cc2)CCOC1=O (configuration not stated)")
"inactive"
>>> qualitative_label("CC1=N/C(=C/c2ccc3c(c2)OCO3)C(=O)O1")
"inactive"
>>> qualitative_label("CC(C)C1=CC2=C(C(=O)C1=O)C13CCCC(C)(C)C1CC2OC3=O (configuration not stated)")
"inactive"
>>> qualitative_label("O=C(O)c1cccc(C(=O)O)c1[S+]([O-])Cc1ccccc1 (configuration not stated)")
"inactive"
>>> qualitative_label("O=C(NCCNCCO)N/N=C/c1cccc([N+](=O)[O-])c1")
"inactive"
>>> qualitative_label("COc1ccc(C2C=C(c3ccccc3)Nc3nnnn32)cc1 (configuration not stated)")
"inactive"
>>> qualitative_label("C/C(=N\\N=C(/S)N1CCCCCC1)c1cccc[n+]1[O-]")
"inactive"
>>> qualitative_label("COc1ccc(CNc2nc3cc(C(F)(F)F)ccc3nc2C(=O)O)cc1")
"inactive"
>>> qualitative_label("Cc1nc2ccccc2c(-n2cccn2)c1CCn1cccn1")
"inactive"
>>> qualitative_label("CC1C2CC(C(C3C(=O)C4CC3C(C)(C)C4C)C2=O)C1(C)C (configuration not stated)")
"inactive"
>>> qualitative_label("Cc1ccc2c(c1C)C(=O)/C(=C/c1ccccc1C(=O)O)C2")
"inactive"
>>> qualitative_label("O=C(c1ccccc1)c1c(-c2ccccc2)[nH]n(-c2ccc([N+](=O)[O-])cc2)c(=O)c1=O")
"inactive"
>>> qualitative_label("COc1ccc2c(c1)N=C(N)n1c(nc3ccccc31)S2")
"inactive"

* * *

# System: EKVX
# Test: NCI tumour cell line growth inhibition, 48 h
Calls of active or inactive are those of the source. Rule as the data show it: active = GI50 up to about 1.1 µM and inactive = higher.
Quantity measured: GI50

>>> value_measured("COc1nc(N)c(N=O)c(OCc2ccccc2)n1")
"2.64 µM (inactive)"
>>> value_measured("CN1CCN(c2nc3c(c(=O)n(C)c(=O)n3C)n2C)CC1")
"> 100 µM (inactive)"
>>> value_measured("CCC1(O)CN(CCOC)[C@H]2C[C@@H]1C(=O)c1[nH]c3ccccc3c12 (some centres undefined)")
"> 100 µM (inactive)"
>>> value_measured("NC(Cc1cc(I)c(O)c(I)c1)C(=O)O (centres undefined)")
"> 316 µM (inactive)"
>>> value_measured("ON(CCc1ccccn1)Cc1ccccc1")
"> 100 µM (inactive)"
>>> value_measured("Oc1ccc(-c2nc3ccc4ccccc4c3c3c2CCCC3)c(O)c1")
"28.8 µM (inactive)"
>>> value_measured("C1CSCCSCCCSCCSCCCSCCSCCCSCCSC1")
"> 100 µM (inactive)"
>>> value_measured("CSc1nc2c(c(=O)n1C)N=C(c1ccc(Cl)cc1)CC(c1ccccc1)N2 (centres undefined)")
"20.9 µM (inactive)"
>>> value_measured("COc1cccc(C2c3cc4c(cc3OC(NNS(=O)(=O)c3ccc(C)cc3)C2C)OCO4)c1OC (centres undefined)")
"3.18 µM (inactive)"
>>> value_measured("CN(C)CCC1(C2=CCCC2)CC/C(=C\\c2ccccc2)C1=O (centres undefined)")
"11.8 µM (inactive)"
>>> value_measured("COc1ccc2c(=O)cc(-c3ccncc3)oc2c1OC")
"28.2 µM (inactive)"
>>> value_measured("COC1OC(C)C(O)CC1OS(=O)(=O)c1ccc(C)cc1 (centres undefined)")
"> 100 µM (inactive)"
>>> value_measured("O=C(c1cc(Cl)cc(Cl)c1)N1CCN(C(=O)c2cc(Cl)cc(Cl)c2)C1=S")
"16.8 µM (inactive)"
>>> value_measured("O=C1[C@@H]2[C@@H](CN3CN(c4ccccc4)N=C(c4ccccc4)[C@@]23c2ccccc2)C(=O)N1c1ccccc1")
"4.89 µM (inactive)"
>>> value_measured("CC(=O)Nc1cccc2[nH]c3ccccc3c(=O)c12")
"25.1 µM (inactive)"
>>> value_measured("COc1ccc(CNc2nc3cc(C(F)(F)F)ccc3nc2C(=O)O)cc1")
"23.6 µM (inactive)"
>>> value_measured("C=CC1(C)CCC(C(C)C(=O)C(C=C(C)C)OC(C)=O)C12C(=O)Oc1ccccc1C2=O (centres undefined)")
"60.8 µM (inactive)"
>>> value_measured("C=CCOn1c(C=C)nc2ccc(C)cc21")
"19.4 µM (inactive)"
>>> value_measured("C=C1C2CC[C@@](C)(O)C2[C@H]2OC(=O)C(=C)[C@@H]2C[C@H]1O (some centres undefined)")
"29 µM (inactive)"

* * *

Each entry below carries its recorded GI50.
# System: MDA-N
# Test: NCI tumour cell line growth inhibition, 48 h
The source made the active and inactive calls. Cut-off read from the data, not from the text of the source: active = GI50 up to about 1.1 µM and inactive = higher.
Quantity measured: GI50

>>> value_measured("O=C(O[C@H](/C=C/c1ccccc1)P1(=O)N(Cc2ccccc2)[C@H]2CCCC[C@@H]2N1Cc1ccccc1)c1ccccc1")
"3.52 µM (inactive)"
>>> value_measured("CCC1CCC2c3c([nH]c4ccccc34)C3C(=O)N(c4ccc(OC)cc4)C(=O)C3C2C1 (stereo not given)")
"55.7 µM (inactive)"
>>> value_measured("Cc1ccc(N2CN3OC(=O)N(c4ccccc4)[C@@]3(c3ccccc3)C2)cc1")
"33.6 µM (inactive)"
>>> value_measured("Cc1n[nH]c(=O)n1/N=C\\CC/C=N\\n1c(C)n[nH]c1=O")
"> 100 µM (inactive)"
>>> value_measured("COc1cc(C[C@H]2C(=O)OC[C@@H]2Cc2ccc(OC)c(OC)c2)cc(OC)c1")
"58.5 µM (inactive)"

* * *

Each entry below carries its recorded GI50.
# Tested on: MCF7
# Test: NCI tumour cell line growth inhibition, 48 h
Calls of active or inactive are those of the source. Rule as the data show it: active = GI50 up to about 1.1 µM and inactive = higher. Peptide text beside a SMILES is read from it. * marks the point of attachment. Boc = CC(C)(C)OC(=O)*; OBn = c1ccc(CO*)cc1
Quantity measured: GI50

>>> value_measured("CC(NC(=O)C(NC(=O)OC(C)(C)C)C(C)C)C(=O)N1CCCC1C(=O)NCC(=O)NC(C(=O)NCC(=O)OCc1ccccc1)C(C)C (stereo not drawn) (Boc-VAPGVG-OBn; configuration not given here)")
"> 100 µM (inactive)"
>>> value_measured("COc1nc(N=P(c2ccccc2)(c2ccccc2)c2ccccc2)cc(=O)[nH]1")
"> 100 µM (inactive)"
>>> value_measured("COc1ccc(CCn2ccc(C)n2)c(OC)c1")
"> 100 µM (inactive)"
>>> value_measured("BC(=O)NC(CC(C)C)C(=O)NC1c2ccsc2C(=O)C1O.CN(C)C (stereo not drawn)")
"> 100 µM (inactive)"
>>> value_measured("CC12Nc3c(Cl)cc(Cl)cc3N1C(=O)c1ccccc12 (stereo not drawn)")
"> 100 µM (inactive)"
>>> value_measured("Cc1c(Cl)c(S(N)(=O)=O)cc(S(N)(=O)=O)c1NC(=O)c1ccc(Cl)cc1")
"> 100 µM (inactive)"
>>> value_measured("C=C1C2CC[C@@](C)(O)C2[C@H]2OC(=O)C(=C)[C@@H]2C[C@H]1O (stereo partly drawn)")
"14.2 µM (inactive)"
>>> value_measured("C=C1N(C)c2ccc(S(=O)(=O)c3ccc4c(c3)C(C)(C)C(=C)N4C)cc2C1(C)C")
"29 µM (inactive)"
>>> value_measured("NNC(=S)N/N=C(\\C(=O)Nc1cccc(O)c1)C1C(=O)NC(=S)NC1=O")
"> 100 µM (inactive)"
>>> value_measured("CC(C)c1nccn1Cc1ccc(Cl)cc1Cl")
"34.1 µM (inactive)"
>>> value_measured("COP(=O)(CC(=O)C1OC(OCc2ccccc2)C(OCc2ccccc2)C(OCc2ccccc2)C1OCc1ccccc1)OC (stereo not drawn)")
"4.74 µM (inactive)"
>>> value_measured("O=C(O)c1cccc(C(=O)O)c1[S+]([O-])Cc1ccccc1 (stereo not drawn)")
"> 100 µM (inactive)"
>>> value_measured("[N-]=[N+]=CC(=O)CCC(NC(=O)C(CCC(=O)C=[N+]=[N-])NC(=O)CCC(N)C(=O)O)C(=O)O (stereo not drawn)")
"> 100 µM (inactive)"
>>> value_measured("CC1(C)C2CCC1(C)[C@H](O)[C@H]2Nc1cc(C(F)(F)F)cc(C(F)(F)F)c1 (stereo partly drawn)")
"> 100 µM (inactive)"
>>> value_measured("Cc1cccc(C(=O)O)c1CC1NCCC2c3ccccc3NC12 (stereo not drawn)")
"> 100 µM (inactive)"
>>> value_measured("Cc1c(/N=N/c2ccc(Cl)cc2)c(C)n(C2OC(CO)C(O)C(O)C2O)c(=S)c1C#N (stereo not drawn)")
"28.6 µM (inactive)"
>>> value_measured("CC(=O)N1C2=CCCC2(C)c2ccccc21 (stereo not drawn)")
"> 100 µM (inactive)"
>>> value_measured("O=C(OCC12CC3CC(CC(C3)C1)C2)c1ccc(NCc2cc(O)ccc2O)cc1")
"1.08 µM (active)"
>>> value_measured("CS/C=C\\C(=O)O[C@H]1C[C@@H]2[C@@H](O)c3occ(C)c3C[C@]2(C)[C@@H](C)C1")
"31.9 µM (inactive)"
>>> value_measured("C=C1c2nc3ccccc3n2C=C(c2ccc(Cl)cc2)N1c1ccc(OC)cc1")
"7.4 µM (inactive)"
>>> value_measured("CSc1c(C#N)c(N)n(-c2ccc(C)cc2)c(=O)c1C#N")
"> 100 µM (inactive)"
>>> value_measured("CCCn1cnc2c(SCC(=O)O)nc(N)nc21")
"> 100 µM (inactive)"
>>> value_measured("O=C(CN1CCN(c2ccccc2)CC1)c1ccc2[nH]c(=O)oc2c1")
"> 100 µM (inactive)"
>>> value_measured("COc1ccc(C2C=C(c3ccccc3)Nc3nnnn32)cc1 (stereo not drawn)")
"20.2 µM (inactive)"
>>> value_measured("Cc1cc2[n-][n+]3ncc(-c4ccccc4)n3c2cc1[N+](=O)[O-]")
"> 100 µM (inactive)"
>>> value_measured("O=C1OC(c2ccccc2Br)=N/C1=C/c1ccccc1")
"57.1 µM (inactive)"
>>> value_measured("CC/C=C/C[C@H](O[Si](C)(C)C(C)(C)C)[C@H]1C[C@H]2O[C@H]([C@@H](O)C#C[Si](C)(C)C)C[C@H]2O1")
"6.92 µM (inactive)"
>>> value_measured("CC(C)/C(=N\\[N+](C)(C)C)c1ccccc1")
"> 100 µM (inactive)"
>>> value_measured("CCOC(=N)n1c(=O)n(C2=NCCN2)c2ccccc21")
"> 100 µM (inactive)"
>>> value_measured("CCC(Sc1cc(Cl)c(C)cc1S(=O)(=O)Nc1nc(N)nc(N(C)C)n1)C(=O)O (stereo not drawn)")
"> 10 µM (inactive)"
>>> value_measured("O=C(CCCl)NN=C1NCCCN1")
"> 100 µM (inactive)"
>>> value_measured("CC(C)[Si]1(C(C)C)OCC2OC(n3ccc(=O)[nH]c3=O)C(O)(CO)C2O[Si](C(C)C)(C(C)C)O1 (stereo not drawn)")
"15.1 µM (inactive)"
>>> value_measured("C=C1C(=O)OC2C1CCC(=C)C1CC(O)C(=C)C12 (stereo not drawn)")
"7.43 µM (inactive)"

Provenance of the data: ChEMBL document CHEMBL1201862
